Data provenance: the Deep4Chem optical property database

// values below are reported fluorescence lifetime
Experiment: solvent given as SMILES
Details: in ClCCl
// return numeric value only (unit: ns, not printed)

[[record]]
compound = "Cc1ccc(C(=O)c2c(C)c3ccc4cccc5c6cccc7ccc2c(c76)c3c45)cc1"
experimental_endpoint = "fluorescence lifetime"
readout_value = 3.6

[[record]]
compound = "c1ccc2c(c1)c1ccc3cccc4c3c1c2c1c2cccc3ccc5c6ccccc6c(c5c32)c41"
experimental_endpoint = "fluorescence lifetime"
readout_value = 0.75

[[record]]
compound = "CCN1C(=O)C(C2C(=O)c3c4ccccc4cc4cc5ccccc5c2c34)C(=O)N(CC)C1=S (centres undefined)"
experimental_endpoint = "fluorescence lifetime"
readout_value = 10.5


Consider now this further compound.
GET /value?item= c1ccc(-c2c3c(c(-c4ccccc4)c4cc5ccccc5cc24)Cc2c(c(-c4ccccc4)c4cc5ccccc5cc4c2-c2ccccc2)C3)cc1 &field=fluorescence lifetime returns 2.58

* * *

Assay: solvent given as SMILES
Details: in CC(C)=O
Just a reminder that ties go to Condition not met: only fluorescence lifetime strictly below 4 ns counts as Condition met.

Past entries and their recorded results:
[[record]]
compound = "CCN(CC)c1ccc2cc(/C=C/C(=C(C#N)C#N)c3ccc4c(c3)c3ccccc3n4CC)c(=O)oc2c1"
assigned_category = "Condition not met"

[[record]]
compound = "CN(C)c1ccc(/C=C/C=C2\\CC/C(=C\\C=C\\c3ccc(N(C)C)cc3)C2=O)cc1"
assigned_category = "Condition met"

[[record]]
compound = "CCN1\\C(=C/C=C/C=C/C2=[N+](CC)c3ccc4ccccc4c3C2(C)C)C(C)(C)c2c1ccc1ccccc21"
assigned_category = "Condition met"

[[record]]
compound = "CCC1=C(C)C2=C(C)c3cc(I)c(I)n3[B-](F)(F)[N+]2=C1C"
assigned_category = "Condition met"


Q. Determine if CN(C)c1ccc2nc(/C=C/c3cc4c5c(c3)CCCN5CCC4)c(=O)oc2c1 shows fluorescence lifetime strictly lower than 4 ns.
A. Condition met

Q. Determine if CN(C)c1ccc(C#Cc2ccccc2)cc1 shows fluorescence lifetime strictly lower than 4 ns.
A. Condition met

Q. Determine if COc1ccc(C2=C3C(C)=CC(C)=[N+]3[B-](F)(F)n3c(/C=C/c4ccc(N(C)C)cc4)cc(C)c32)cc1 shows fluorescence lifetime strictly lower than 4 ns.
A. Condition met

Q. Determine if c1ccc(-c2nn(-c3ccccc3)c3nc4ccc(N(c5ccccc5)c5cccc6ccccc56)cc4cc23)cc1 shows fluorescence lifetime strictly lower than 4 ns.
A. Condition not met

Q. Determine if COC(=O)C(Cc1ccc2oc(-c3ccc(Nc4ccccc4)cc3)nc2c1)NC(=O)OC(C)(C)C (configuration not stated) shows fluorescence lifetime strictly lower than 4 ns.
A. Condition met

* * *

Test: solvent given as SMILES
Details: in ClCCl
// values below are reported fluorescence lifetime
// return numeric value only (unit: ns, not printed)

Known results for compounds:
[[record]]
smiles_entry = "F[B-]1(F)OC(c2ccccc2)=Cc2cc3[n+](c[n+]21)[B-](F)(F)OC(c1ccccc1)=C3"
experimental_endpoint = "fluorescence lifetime"
readout_value = 1.4

[[record]]
smiles_entry = "CCN(CC)c1ccc(-c2cc3c(s2)c(C(=O)OC)cc(=O)n3C)cc1"
experimental_endpoint = "fluorescence lifetime"
readout_value = 6.59

[[record]]
smiles_entry = "C=CCOc1nnc(OCCC(F)(F)C(F)(F)C(F)(F)C(F)(F)C(F)(F)C(F)(F)F)nn1"
experimental_endpoint = "fluorescence lifetime"
readout_value = 63.8

[[record]]
smiles_entry = "Cc1ccccc1-c1cc(-c2ccc(N3c4ccccc4C(C)(C)c4ccccc43)cc2)nc(-c2ccccc2)n1"
experimental_endpoint = "fluorescence lifetime"
readout_value = 22.7


GET /value?item= Fc1ccc(N(c2ccc(F)cc2)c2ccc3c4cccc5c(N(c6ccc(F)cc6)c6ccc(F)cc6)ccc(c6cccc2c63)c54)cc1 &field=fluorescence lifetime returns 4.26

GET /value?item= COc1ccc(-c2cc3c(s2)c(C(C)=O)cc(=O)n3C)cc1 &field=fluorescence lifetime returns 1.51

GET /value?item= CC(=O)c1ccc2ccc3cccc4ccc1c2c34 &field=fluorescence lifetime returns 4.8

GET /value?item= CCN(CC)c1ccc(/N=N/c2nc3ccc(Br)cc3s2)cc1 &field=fluorescence lifetime returns 2.75

GET /value?item= CC1=C(Br)C(C)=[N+]2C1=C(c1c(-c3ccccn3)nc3ccccn13)c1c(C)c(Br)c(C)n1[B-]2(F)F &field=fluorescence lifetime returns 0.9

* * *

Assay: solvent given as SMILES
Conditions: in CC#N
Returns Condition met if the recorded fluorescence lifetime is greater than or equal to 1 ns, and Condition not met otherwise.

[[record]]
smiles_entry = "CCOC(=O)c1ccccc1-c1c2ccc(=[N+](CC)CC)cc-2oc2cc(N(CC)CC)ccc12"
assigned_category = "Condition met"

[[record]]
smiles_entry = "CCN(CC)c1ccc(-c2nc3c(c4c2-c2ccccc2CC4)-c2ccccc2CC3)cc1"
assigned_category = "Condition not met"

[[record]]
smiles_entry = "COc1ccc(C#Cc2ccc(-c3nn[nH]n3)cc2)cc1OC"
assigned_category = "Condition not met"

[[record]]
smiles_entry = "COc1ccc2c(c1)C(=O)c1ccccc1-2"
assigned_category = "Condition met"

[[record]]
smiles_entry = "N#C[Se]CCCCCOc1ccc2ccc(=O)oc2c1"
assigned_category = "Condition not met"

[[record]]
smiles_entry = "c1ccc2cc3cc(-c4cc(-c5nccs5)nc(-c5nccs5)c4)ccc3cc2c1"
assigned_category = "Condition met"

[[record]]
smiles_entry = "Cc1cc2nc3[nH]c(=O)n(C)c(=O)c3nc2cc1C"
assigned_category = "Condition not met"

[[record]]
smiles_entry = "CCCn1c2cccc3c2[c+]2c4c1cccc4n(CCC)c1cccc(c12)n3CCC"
assigned_category = "Condition met"

[[record]]
smiles_entry = "COc1c2ccccc2c(OC)c2c1c1ccc(C(F)(F)F)cc1n2C"
assigned_category = "Condition met"


Let's switch to this molecule now.
Q. Has CN(C)c1ccc(C#Cc2ccccc2)cc1 a recorded fluorescence lifetime greater than or equal to 1 ns?
A. Condition met

* * *

Experiment: solvent given as SMILES
Conditions: in C1CCCCC1
// values below are reported fluorescence lifetime
// return numeric value only (unit: ns, not printed)

Known results for compounds:
[[record]]
smiles_entry = "CC1=[N+]2C(=C(NCc3ccccc3)c3ccc(C)n3[B-]2(F)F)C=C1c1cc2n(c1)[B-](F)(F)[N+]1=CC=CC1=C2c1c(C)cc(C)cc1C"
experimental_endpoint = "fluorescence lifetime"
readout_value = 2.19

[[record]]
smiles_entry = "COc1c2ccccc2c(OC)c2c1c1ccc(C(F)(F)F)cc1n2C"
experimental_endpoint = "fluorescence lifetime"
readout_value = 26

[[record]]
smiles_entry = "CC1=[N+]2C(=C(c3ccc(Br)cc3)c3ccc(C)n3[B-]2(F)F)C=C1c1cc2n(c1)[B-](F)(F)[N+]1=CC=CC1=C2c1c(C)cc(C)cc1C"
experimental_endpoint = "fluorescence lifetime"
readout_value = 3.01

[[record]]
smiles_entry = "CC(C)(C)[Si](C)(C)c1cccc2ccccc12"
experimental_endpoint = "fluorescence lifetime"
readout_value = 56

[[record]]
smiles_entry = "COc1ccc2nc3c(nc2c1)c(-c1ccccc1)nn3C"
experimental_endpoint = "fluorescence lifetime"
readout_value = 5.37


GET /value?item= CNc1ccc(/C=C/C#N)cc1 &field=fluorescence lifetime returns 0.6

GET /value?item= CC(C)(C)C#Cc1ccc2c3cccc4cccc(c5cccc1c52)c43 &field=fluorescence lifetime returns 4.3

GET /value?item= FC(F)(F)c1ccc(/C=C/c2nc3c(ccc4ccccc43)s2)cc1 &field=fluorescence lifetime returns 0.75

GET /value?item= Cc1cc2ccccc2cc1C &field=fluorescence lifetime returns 133

GET /value?item= CCC1=C(C)C2=C(C)c3cc(I)c(I)n3[B-](F)(F)[N+]2=C1C &field=fluorescence lifetime returns 1.02

GET /value?item= CCCCCCOc1ccc2oc3c(c2c1)=CC1=C(c2ccccc2C)c2cc4c5cc(OCCCCCC)ccc5oc4n2[B-](F)(F)[N+]=31 &field=fluorescence lifetime returns 4.12

GET /value?item= Cc1ccc2nc3c(nc2c1)c(-c1ccccc1)nn3C &field=fluorescence lifetime returns 9.32

GET /value?item= c1ccc2c(-c3ccc4sc5ccccc5c4c3)c3ccccc3cc2c1 &field=fluorescence lifetime returns 4.1

GET /value?item= Cc1cccc2ccccc12 &field=fluorescence lifetime returns 140

GET /value?item= Cc1cc(=O)oc2c3c4c(cc12)CCCN4CCC3 &field=fluorescence lifetime returns 2.6

GET /value?item= c1cc2c3c(c1)OCCCCCCCOc1cccc(c1-c1c4ccccc4c-3c3ccccc13)OCCCCCCCO2 &field=fluorescence lifetime returns 8.18

GET /value?item= CCC1=C(C)C2=Cc3c(I)c(I)c(I)n3[B-](F)(F)[N+]2=C1C &field=fluorescence lifetime returns 0.358

GET /value?item= COc1cc(/C=C/C(=O)CC(=O)/C=C/c2ccc(O)c(OC)c2)ccc1O &field=fluorescence lifetime returns 0.064

* * *

Test: solvent given as SMILES
Conditions: in CCO
Just a reminder that ties go to NO: only fluorescence lifetime strictly below 2 ns counts as YES.

[[record]]
molecule = "CN(C)c1ccc2c(-c3ccc(N)cc3C(=O)[O-])c3ccc(=[N+](C)C)cc-3oc2c1"
assigned_category = "NO"


Q. Determine if Cc1nnc(-c2ccc(-n3c4ccccc4c4ccccc43)cc2)o1 shows fluorescence lifetime strictly lower than 2 ns.
A. NO

Q. Determine if N#Cc1cccc2cc[nH]c12 shows fluorescence lifetime strictly lower than 2 ns.
A. NO

Q. Determine if CCN(CC)c1ccc2cc(C#N)/c(=N\C(=O)c3ccc(F)cc3)oc2c1 shows fluorescence lifetime strictly lower than 2 ns.
A. NO

Q. Determine if COc1ncccc1B(O)O shows fluorescence lifetime strictly lower than 2 ns.
A. YES

Q. Determine if COC(=O)C(Cc1ccc2oc(-c3ccc(N(C)c4ccccc4)cc3)nc2c1)NC(=O)OC(C)(C)C (stereo unspecified) shows fluorescence lifetime strictly lower than 2 ns.
A. YES

Q. Determine if COc1ccc2c(=O)c3c([nH]c2c1)-c1ccccc1NC3(C)C shows fluorescence lifetime strictly lower than 2 ns.
A. NO

Q. Determine if N#C[Se]CCCCCOc1ccc2ccc(=O)oc2c1 shows fluorescence lifetime strictly lower than 2 ns.
A. YES

Q. Determine if CCOC(=O)c1ccccc1-c1c2ccc(=[N+](CC)CC)cc-2oc2cc(N(CC)CC)ccc12 shows fluorescence lifetime strictly lower than 2 ns.
A. NO

Q. Determine if CC1=C(C(C)(C)C)C(C)=[N+]2C1=C(C)c1c(C)c(C(C)(C)C)c(C)n1[B-]2(F)F shows fluorescence lifetime strictly lower than 2 ns.
A. NO
